Target system: acetylcholine receptor
Test protocol: SPR, peptide at 10 uM on immobilized AchR

Binder	Unit tag	Binding affinity (RU)
KINPRK [6mer-2-1009]	RU	34
KMDEKK [6mer-2-1033]	RU	28
KHTDKK [6mer-2-1044]	RU	41
KCHDKK [6mer-2-1000]	RU	41
RYTPKR [6mer-2-1021]	RU	39
KPHWKR [6mer-2-1072]	RU	29
